Target: T1, human CDH6 on tumor cells (OVCAR3 cells, PA-1 cells) (human, UniProt P55285 54-790)
T1 sequence: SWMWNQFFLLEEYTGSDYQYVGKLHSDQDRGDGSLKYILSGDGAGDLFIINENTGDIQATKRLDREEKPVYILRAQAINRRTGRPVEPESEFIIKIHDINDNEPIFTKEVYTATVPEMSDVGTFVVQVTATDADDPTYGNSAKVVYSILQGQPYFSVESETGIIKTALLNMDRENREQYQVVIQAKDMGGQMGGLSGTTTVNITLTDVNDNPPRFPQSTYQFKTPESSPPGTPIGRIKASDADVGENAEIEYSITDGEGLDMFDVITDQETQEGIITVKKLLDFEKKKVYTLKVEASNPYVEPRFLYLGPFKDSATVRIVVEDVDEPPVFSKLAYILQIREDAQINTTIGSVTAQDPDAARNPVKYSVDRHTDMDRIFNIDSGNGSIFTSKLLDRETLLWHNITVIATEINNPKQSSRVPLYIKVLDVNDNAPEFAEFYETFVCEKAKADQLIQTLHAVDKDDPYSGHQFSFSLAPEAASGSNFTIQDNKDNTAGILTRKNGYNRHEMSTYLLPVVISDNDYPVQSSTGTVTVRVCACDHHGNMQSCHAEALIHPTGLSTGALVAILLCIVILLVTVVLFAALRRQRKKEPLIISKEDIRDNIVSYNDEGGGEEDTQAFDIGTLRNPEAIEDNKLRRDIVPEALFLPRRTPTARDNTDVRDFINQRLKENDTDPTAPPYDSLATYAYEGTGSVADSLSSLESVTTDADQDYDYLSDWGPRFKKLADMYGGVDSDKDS
Experiment: FACS, OVCAR3 cells, 4° C. arm of endocytosis assay
QUANTITY NAME: MFI_4° C. (MFI)

{"BINDER": "hCDH6-14-H6L3 (antibody, V domains shown, Humanized) VH: EVQLVQSGAEVKKPGASVKVSCKASGYTFTDNYINWVRQAPGQRLEWMGWIYPGTGNSYYNEKFKGRVTITVDTSASTAYMELSSLRSEDTAVYLCASSYGDSFDYWGQGTTVTVSS VL: DIVMTQSPDSLAVSLGERATINCRASQDIRNYLNWYQQKPGQTPKLLISYTSRLHSGVPDRFSGSGSGTDFTLTISSLQAEDVAVYYCQQYSQLPWTFGGGTKVEIK", "QUANTITATIVE RESULT": 16100}
{"BINDER": "DS-H01L02 (antibody, human IgG1, kappa, V domains shown, Positive control, variable regions from WO2018212136A1; also called positive control anti-human CDH6 antibody) VH: EVQLVQSGAEVKKPGASVKVSCKASGYTFTRNFMHWVRQAPGQGLEWMGWIYPGDGETEYAQKFQGRVTITADTSTSTAYMELSSLRSEDTAVYYCARGVYGGFAGGYFDFWGQGTLVTVSS VL: DIQMTQSPSSLSASVGDRVTITCKASQNIYKNLAWYQQKPGKAPKLLIYDANTLQTGVPSRFSGSGSGSDFTLTISSLQPEDFATYFCQQYYSGWAFGQGTKVEIKR", "QUANTITATIVE RESULT": 11400}
